# System: Staphylococcus epidermidis
# Test Method Notes: Compound was tested for antibacterial activity against Staphylococcus epidermidis
# Type: functional
Assay Endpoint: MIC (µg/mL)
Your answer should be a plain number; it is taken to be in µg/mL.

C[C@H](N)C(=O)N[C@@H](CCl)C(=O)O 0.0125

Q: Returns the measured MIC for the input compound. Input: N[C@@H](CCl)C(=O)N[C@@H](CCl)C(=O)N[C@@H](CCl)C(=O)O
Ans: 0.1

====

# Tested on: Shigella flexneri
# Test Method Notes: Compound was tested for antibacterial activity against Shigella flexneri
# Format: functional
Assay Endpoint: MIC

C[C@H](N)C(=O)N[C@@H](C)C(=O)N[C@@H](CCl)C(=O)O > 100 µg/mL

Q: // fetch Shigella flexneri MIC for CSCC[C@H](N)C(=O)N[C@@H](C)C(=O)N[C@@H](CCl)C(=O)O
Ans: > 100 µg/mL

Q: // fetch Shigella flexneri MIC for N[C@@H](CCl)C(=O)N[C@@H](CCl)C(=O)N[C@@H](CCl)C(=O)O
Ans: 6.25 µg/mL

====

# Tested on: Haemophilus influenzae
# Test Method Notes: Compound was tested for antibacterial activity against Hemophilus influenzae
# Type: functional
This section presents compounds with their documented MIC values.

CC(C)[C@H](N)C(=O)N[C@@H](C)C(=O)N[C@@H](CCl)C(=O)O > 100 µg/mL
NCCC(=O)N[C@@H](CCl)C(=O)O > 100 µg/mL
CSCC[C@H](N)C(=O)N[C@@H](C)C(=O)N[C@@H](CCl)C(=O)O > 100 µg/mL

Q: Returns the measured MIC for the input compound. Input: NC(=O)CC[C@H](N)C(=O)N[C@@H](CCl)C(=O)O
Ans: > 100 µg/mL

Q: Returns the measured MIC for the input compound. Input: C[C@H](N)C(=O)N[C@@H](C)C(=O)N[C@@H](CCl)C(=O)O
Ans: > 100 µg/mL

Q: Returns the measured MIC for the input compound. Input: CC[C@H](N)C(=O)N[C@@H](CCl)C(=O)O
Ans: < 0.1 µg/mL
